read-out: Monokine induced gamma interferon (MIG), CXCL9 (gene 4283); assay: BSK_SAg_MIG: BioMAP Diversity Plus: SAg Assay for Monokine induced gamma interferon (MIG) Biomarker Activity (AID 2283092); settings: primary human HUVEC with PBMC; actives raise or lower the signal
Calls of active or inactive are those of the source. How the source made its calls: active means hit-call score of the fitted dose curve at least 0.9, where 1 is the maximum; inactive means score below 0.9.
Please reply with one of these outcomes: t (active), f (inactive)

                                   compound  answer_label
0  CCCCC(CC)CO[N+](=O)[O-] (configuration not stated)             f

Challenge: Look up the recorded call for C=CC(=O)OCCCCCC(C)C in this test.
Response given: f

Challenge: Try O=C(O)CCC(F)(C(F)(F)F)C(F)(F)F next.
Response given: f

Challenge: Try CCSC(C)CC1CC(=O)C(C(CC)=NOC/C=C/Cl)=C(O)C1 (configuration not stated) next.
Response given: f

Challenge: Try COP(=S)(OC)Oc1cc(Cl)c(Cl)cc1Cl next.
Response given: f

Challenge: Try CCC(C)(C)c1ccc(O)c(C(C)(C)CC)c1 next.
Response given: t

----------
Read-out: Glutathione S-Transferase (GSTA2), GSTA2 (gene 2939)
Experiment: LTEA_HepaRG_GSTA2: Life Technologies and Expression Analysis (LTEA) Assay for Glutathione S-Transferase (GSTA2) using HepaRG (AID 2283497)
Settings: mRNA level, 48 h; actives raise or lower the signal
Experimental: LTEA_HepaRG is a cell based, multiplexed-readout assay that uses HepaRG, a human liver cell line, with measurements taken at 48 hours after chemical dosing on a 96-well plate.LTEA_HepaRG_GSTA2 is one of 102 assay component(s) measured in the LTEA HepaRG cell culture assay. It is a marker of Oxidative Stress.Data from the assay component LTEA_HepaRG_GSTA2 was analyzed into 1 endpoint. […]
Active and inactive are the calls of the source. How the source made its calls: active means hit-call score of the fitted dose curve at least 0.9, where 1 is the maximum; inactive means score below 0.9.
Please reply with one of these outcomes: yes (1) for active, no (0) for inactive

In [3]: df
Out[3]:
                                   compound  answer_label
0  CCC(=O)C(CC(C)N(C)C)(c1ccccc1)c1ccccc1 (stereo not drawn)        no (0)
1  CC(C)(c1ccccc1)c1ccc(O)c(C(C)(C)c2ccccc2)c1        no (0)
2                   CC(=O)[O][Hg][c]1ccccc1       yes (1)
3                       C=CC(=O)OCCCCCC(C)C        no (0)
4             CCOP(=S)(OCC)SCSP(=S)(OCC)OCC        no (0)

Challenge: Look up the recorded call for CC(C)(OO)c1ccccc1 in this test.
Response given: no (0)

Challenge: Try O=C1C2(Cl)C3(Cl)C4(Cl)C(Cl)(Cl)C5(Cl)C3(Cl)C1(Cl)C5(Cl)C24Cl (stereo not drawn) next.
Response given: yes (1)

Challenge: Try COc1cc(-c2ccc(N)c(OC)c2)ccc1N next.
Response given: no (0)

Challenge: Try CCN1CCC2(CC1)COc1cc3c(cc12)N(C(=O)c1ccc(-c2ccc(-c4nnc(C)o4)cc2C)cc1)CC3 next.
Response given: yes (1)

Challenge: Try C=C(C)C(=O)[O][Sn]([CH2]CCC)([CH2]CCC)[CH2]CCC next.
Response given: no (0)

Challenge: Try CCCCCCCCc1ccc(O)cc1 next.
Response given: no (0)

Challenge: Try O=C(Nc1ccc2[nH]ccc2c1)c1cc2cc(F)ccc2n1Cc1cccc(F)c1 next.
Response given: yes (1)

Challenge: Try Cn1sc(Cl)cc1=O next.
Response given: no (0)
